- Tested on: RXF 393 renal
- protocol.details: NCI-60 one-dose screen, 48 h (100 = growth as untreated, 0 = no growth, -100 = all killed)
- experimental.setup: 10 µM
This is part of a sample that, as a whole, favours compounds with a hit. Of some 83,000 tested, about 20% had one in any assay.
property: growth (%)
Unit % implied. Number only.

Exam item: Write down the reported growth of CC(C)(C)OC(=O)CN1CCc2c(sc3ncnc(N/N=C/c4ccccc4Br)c23)C1 , test system: RXF 393 renal.
Marked response: 70.3

Exam item: Write down the reported growth of O=[N+]([O-])c1ccc(/C(=C/c2ccccc2)[n+]2ccccc2)cc1 , test system: RXF 393 renal.
Marked response: 105

Exam item: Write down the reported growth of COc1ccc(C(=O)CSc2nc(-c3cc(OC)ccc3OC)cc(-c3ccc(OC)cc3)c2C#N)cc1 , test system: RXF 393 renal.
Marked response: 107

Exam item: Write down the reported growth of COc1cc(C(=O)/C=C/c2c[nH]c3ccccc23)cc(OC)c1OC , test system: RXF 393 renal.
Marked response: 43

Exam item: Write down the reported growth of CCNc1nc(C(F)(F)F)nc2c1sc(=S)n2-c1ccccc1 , test system: RXF 393 renal.
Marked response: 100

Exam item: Write down the reported growth of Cc1cc(=O)n2nnc3cc(C(F)(F)F)ccc3n12 , test system: RXF 393 renal.
Marked response: 123

Exam item: Write down the reported growth of CCN(CC)CC(=O)N(CC)c1ccc(C)c(Cl)c1 , test system: RXF 393 renal.
Marked response: 105

Exam item: Write down the reported growth of COc1cc2cc(Oc3ccc(NC(=O)c4cccc(C(F)(F)F)c4)cc3)c(C)nc2cc1OC , test system: RXF 393 renal.
Marked response: 54

Exam item: Write down the reported growth of CC(C)CCN(CCC(C)C)CC(=O)Nc1ccc(S(=O)(=O)c2ccc(NC(=O)CN(CCC(C)C)CCC(C)C)cc2)cc1 , test system: RXF 393 renal.
Marked response: 24.9

Exam item: Write down the reported growth of O=C(Nc1ccc(OCc2nnc(-c3ccc(Cl)cc3)o2)c(F)c1)Nc1ccc(Cl)c(C(F)(F)F)c1 , test system: RXF 393 renal.
Marked response: -10.2

Exam item: Write down the reported growth of COC(=O)c1cc2oc(/C=C3/SC(=S)N(N)C3=O)cc2n1Cc1ccccc1 , test system: RXF 393 renal.
Marked response: -19.1

Exam item: Write down the reported growth of COc1cc(C(=O)n2nc(-c3cc(OC)c(OC)c(OC)c3)nc2N)cc(OC)c1OC , test system: RXF 393 renal.
Marked response: 114

Exam item: Write down the reported growth of CN(C)CCCOc1ccc(NC2=C(Cl)C(=O)C(Nc3ccc(OCCCN(C)C)cc3)=C(Cl)C2=O)cc1 , test system: RXF 393 renal.
Marked response: -97.9

Exam item: Write down the reported growth of NS(=O)(=O)c1ccc(Br)cc1 , test system: RXF 393 renal.
Marked response: 113

Exam item: Write down the reported growth of NS(=O)(=O)Oc1ccc2c(ccn2C(=O)C23CC4CC(CC(C4)C2)C3)c1 , test system: RXF 393 renal.
Marked response: 115

Exam item: Write down the reported growth of Cc1cc(Br)nnc1Br , test system: RXF 393 renal.
Marked response: 120

Exam item: Write down the reported growth of C[C@]12CC[C@@H]3c4ccc(OS(=O)(=O)O)cc4CC[C@H]3[C@@H]1CC[C@@H]2NS(=O)(=O)c1ccc(-c2ccccc2)cc1 , test system: RXF 393 renal.
Marked response: 53.1

Exam item: Write down the reported growth of N#Cc1cnn(C(=O)c2nn(-c3ccc(Cl)cc3)cc2O)c1N , test system: RXF 393 renal.
Marked response: 39.3

Exam item: Write down the reported growth of O=C(CCl)Oc1ccc(OC(=O)CCl)cc1 , test system: RXF 393 renal.
Marked response: 109

Exam item: Write down the reported growth of O=C1C=C(Nc2cccc(Br)c2)c2ccccc2C1=O , test system: RXF 393 renal.
Marked response: 31.8

Exam item: Write down the reported growth of Nc1c(Br)cc(Br)c2c1[nH]c(=O)c1ccccc12 , test system: RXF 393 renal.
Marked response: 26.2
